Tested on: MS2 coat protein
Test: apparent Kd, MS2 coat protein; higher = weaker binding; RNA-MaP array; FMN 200 µM where present
Conditions: designed as: OFF switch for flavin mononucleotide; no ligand
Classification field: 1.0 = apparent Kd at or over 30 nM; 0.0 = apparent Kd under 30 nM.

Qu. Does `UUGUUAGGGAGAGGAUAUUGACAUGAGGAUCACCCAUGUAUUUGGGAGUGUUUACUGAAUUCUCACGAGAAGGCUUACAAAUUU` have a reported apparent Kd of at least 30 nM?
Ans. 1.0

Qu. Does `UAUAUAUAGUAAGGAUAUGUAUUAAUUUUAUUAACAGAAGGUACUGACAUGAGGAUCACCCAUGUUUUAGUGUGGGCAUGUAGA` have a reported apparent Kd of at least 30 nM?
Ans. 1.0

Qu. Does `UUCGAAUUGUAGGAUAUUUUGCCCGAUUGGGCGGGAGAAGGGCAGACAUGAGGAUCACCCAUGUGUCAGGCAGU` have a reported apparent Kd of at least 30 nM?
Ans. 1.0

Qu. Does `AACUGACAUGAGGAUCACCCAUGUCAGGAUAUGAUUUGACGAAAUAAAACACGUCAUAUCAGAAGGGACAUGGA` have a reported apparent Kd of at least 30 nM?
Ans. 0.0

----------
Tested on: MS2 coat protein
Experiment: apparent Kd, MS2 coat protein; higher = weaker binding; RNA-MaP array
Conditions: designed as: OFF switch for flavin mononucleotide; no ligand
Recorded apparent Kd by entry
Unit nM implied. Number only.

                           polymer_sequence  measured_number
0  AUGCUGUGAGGAUAUCAGUCCCAGAAAAGCUGGCCGCUGACUGAGAAGGCACAUGAGGAUCACCCAUGUUCAAC             10.2
1  AGUACAUCGGAGAAGGUGCAAGGUUAGCUUUCGCAAGGAUAUCCACACCCUUAGUACAGUGCUACAUGAGGAUCACCCAUGUUA             10.1
2  CCGGCGGAAGGAUAUUGCGAUGACCACAUGAGGAUCACCCAUGUCAACUUGAUCCGGGUACAAGAAGGUCCAGCGA             19.3
3  GAUGAGUUUAAGGAUAUGGUGCGUUGCUUCUUACCAGAAGGUAAAACAUGAGGAUCACCCAUGUGACGGGUGCC              177
4  ACGAUGAUAGAAGGAUAUAGGCCGAACAUGAGGGACAUGAGGAUCACCCAUGUGACAGUCGGACCCUAGAAGGUCUCGAUACUC             21.2

Qu. Report apparent Kd from MS2 coat protein testing of `CUACAUGAGGAUCACCCAUGUGCCUCUGGUCAGGGUCACUACGAGGAUAUAAUAGUUUAGACGAGUUAGAAGGCGUAUGAGUUA`
Ans. 111

Qu. Report apparent Kd from MS2 coat protein testing of `ACAUAGUAAGGAUAUCUCCUGUUCGAGAAAGAGAGGCAUAAAGAGAAGGUACAUGAGGAUCACCCAUGUGACGA`
Ans. 7.51

Qu. Report apparent Kd from MS2 coat protein testing of `GCAAGGGUGCGAGGAUAUAUUAGAGUCUCUGGAAUAGAAGGCGCAAACAGUGUACAUGAGGAUCACCCAUGUGUAUAUACUGCU`
Ans. 11

Qu. Report apparent Kd from MS2 coat protein testing of `GACCUGUUAGGAUAUCGAAGGAGUCAAUACCAAGUGAGACACGAGAAGGAACAUGAGGAUCACCCAUGUGAACC`
Ans. 11.4

Qu. Report apparent Kd from MS2 coat protein testing of `AAUAUAGCAGGAUAUACAGAACACCAAUAGACUUCGUUUAGACAUGAGGAUCACCCAUGUAGAAGGGCUCAGAC`
Ans. 9.85

Qu. Report apparent Kd from MS2 coat protein testing of `GGAUGAAGGAAGGAUAUUACGCAGCAACGACCGUAAGAAGGUCCAACAUGAGGAUCACCCAUGUGGUGCUUACU`
Ans. 33.2

These entries and their values trace back to the EternaBench riboswitch data.
